Biological target: Peroxisome proliferator-activated receptor alpha (Homo sapiens) (UniProt Q07869)
Sequence (whole entry): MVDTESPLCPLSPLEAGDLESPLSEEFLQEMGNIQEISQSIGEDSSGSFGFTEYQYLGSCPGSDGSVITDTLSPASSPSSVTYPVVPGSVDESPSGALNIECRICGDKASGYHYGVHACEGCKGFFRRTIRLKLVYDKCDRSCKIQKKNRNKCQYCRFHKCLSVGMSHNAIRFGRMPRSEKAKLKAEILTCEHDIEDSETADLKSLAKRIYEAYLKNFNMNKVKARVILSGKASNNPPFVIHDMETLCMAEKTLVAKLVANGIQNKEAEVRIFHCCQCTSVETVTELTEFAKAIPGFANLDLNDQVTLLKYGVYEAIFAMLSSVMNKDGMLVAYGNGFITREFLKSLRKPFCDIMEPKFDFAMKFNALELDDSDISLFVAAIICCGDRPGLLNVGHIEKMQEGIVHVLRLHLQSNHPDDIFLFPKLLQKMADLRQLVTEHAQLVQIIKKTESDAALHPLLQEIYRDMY
Test: Agonist activity at human PPARalpha ligand binding domain expressed in african green monkey CV1 cells co-transfected with fused Gal4-DBD by transactivation assay relative to gemfibrozil
Format: cell-based
Settings: CV-1
READOUT: Emax (%)

Worked examples, 5 compounds total:
Enquiry: Could you share what Emax was measured for `CCO[C@@H](Cc1cccc(/C(C)=N/OCc2ccccc2Cl)c1)C(=O)O` , tested on Peroxisome proliferator-activated receptor alpha (Homo sapiens) (UniProt Q07869)?
Return: 143

Enquiry: Under Peroxisome proliferator-activated receptor alpha (Homo sapiens) (UniProt Q07869): Emax value of CCO[C@@H](Cc1cccc(C2=NOC(c3ccc(F)cc3)C2)c1)C(=O)O (some centres not stated) ?
Return: 119

Enquiry: So what Emax did CCO[C@@H](Cc1cccc(C2=NOC(c3ccccc3)C2)c1)C(=O)O (some centres not stated) get with Peroxisome proliferator-activated receptor alpha (Homo sapiens) (UniProt Q07869)?
Return: 78

Enquiry: Request: Emax, test system Peroxisome proliferator-activated receptor alpha (Homo sapiens) (UniProt Q07869), entry CCO[C@@H](Cc1cccc(C2=NOC(c3ccc(Br)cc3)C2)c1)C(=O)O (some centres not stated)
Return: 144

Enquiry: Report Emax for `CCO[C@@H](Cc1cccc(/C(C)=N/OCc2ccc(C(C)(C)C)cc2)c1)C(=O)O` tested on Peroxisome proliferator-activated receptor alpha (Homo sapiens) (UniProt Q07869).
Return: 137

(P) CCO[C@@H](Cc1cccc(/C(C)=N/OCc2ccc(O)cc2)c1)C(=O)O
(Q) CCO[C@@H](Cc1cccc(/C(C)=N/OCc2ccc(F)cc2)c1)C(=O)O
(R) CCO[C@@H](Cc1cccc(C2=NOC(Cc3ccccc3)C2)c1)C(=O)O (some centres not stated)
(S) CCO[C@@H](Cc1cccc(/C(C)=N/OCc2ccc(OS(C)(=O)=O)cc2)c1)C(=O)O
Enquiry: Rank entries according to their Emax, from the largest number down. Kindly provide the labels arranged according to the requested ordering.
Return: Q, S, R, P

(I) CCO[C@@H](Cc1cccc(/C(C)=N/OCc2ccccc2)c1)C(=O)O
(II) CCO[C@H](Cc1cccc(-c2cc(-c3ccccc3)on2)c1)C(=O)O
(III) CCO[C@@H](Cc1cccc(/C(C)=N/OCc2ccc(I)cc2)c1)C(=O)O
(IV) CCO[C@@H](Cc1cccc(C2=NOC(CCc3ccccc3)C2)c1)C(=O)O (some centres not stated)
Enquiry: Order the 4 compounds from highest to lowest Emax. Note for the reader: the ranking is given by listing the labels in the order requested.
Return: IV, III, I, II
(IV: 262%, III: 139%, I: 71%, II: 48%)

(A) CCO[C@@H](Cc1ccc(OCCc2ccc(OS(C)(=O)=O)cc2)cc1)C(=O)O
(B) CCO[C@@H](Cc1cccc(C2=NOC(c3ccc(OC)cc3)C2)c1)C(=O)O (some centres not stated)
Enquiry: Pick one: A or B . Which one has the lower reported Emax? The response must carry the label of the picked entry.
Return: A
